# Procedure details: cytotoxicity in MT-4 cells (MTT, culture medium in place of HIV)
# Type: cell-based
# Study conditions: human; MT-4 cells, no virus, 37° C., 5 days, MTT; Table 3; read-out: CC50
Known CC50 at 120 h of a selection of compounds

Some compounds with known CC50 at 120 h results, for comparison:
1) CC(O)Cn1c(CO)nc(C(C)C)c1Sc1cc(Cl)cc(Cl)c1 (stereo not drawn) [I-32']; 12.5 to 25 µg/mL
2) CC(C)c1nc(CN(C)C)n(C)c1Sc1cc(Cl)cc(Cl)c1 [Compound I-78]; 1 to 10 µg/mL
3) Cc1nc(C(C)C)c(Sc2cc(Cl)cc(Cl)c2)n1C [Compound I-1]; 6.3 to 12.5 µg/mL

According to the records, this compound Cc1nc(C(C)C#N)c(Sc2cccc(Cl)c2)n1C (stereo not drawn) [Compound I-97] displays CC50 at 120 h of 10 to 100 µg/mL

According to the records, this compound C=CCn1c(CO)nc(C(C)C)c1Sc1cc(Cl)cc(Cl)c1 [Compound I-19] displays CC50 at 120 h of 10 to 100 µg/mL

According to the records, this compound CCn1c(COC(N)=O)nc(C(C)C)c1Sc1cc(Cl)cc(Cl)c1 [Compound I-52] displays CC50 at 120 h of 10 µg/mL

According to the records, this compound CCn1c(CO)nc(C(C)C)c1Sc1cc(F)cc(F)c1 [Compound I-36] displays CC50 at 120 h of 10 to 100 µg/mL

According to the records, this compound CC(C)c1nc(CN)n(CF)c1Sc1cc(Cl)cc(Cl)c1 [Compound I-77] displays CC50 at 120 h of 10 µg/mL

According to the records, this compound CC(C)c1nc(CO)[nH]c1[S+]([O-])c1cc(Cl)cc(Cl)c1 (stereo not drawn) [Compound I-113] displays CC50 at 120 h of 100 µg/mL

====

Known IC50 of a selection of compounds
# Study system: purified recombinant HIV-1 reverse transcriptase (Human immunodeficiency virus type 1 group M subtype B)
# Construct: purified recombinant HIV-1 reverse transcriptase; made in house; host or cells: Escherichia coli
# Procedure details: reverse transcriptase inhibition, poly(rA)/(dT) template primer, [3H]dTTP uptake
# Assay type: biochemical
Give just the number in µM; leave the unit off.

Some compounds with known IC50 results, for comparison:
1) CC(C)c1nc(CCCO)n(C)c1Sc1cc(Cl)cc(Cl)c1 [Compound 137a]; 5.57
2) CC(C)c1nc(CN)n(C)c1Sc1ccccc1; 21.8
3) CC(=O)Nc1ccc(Cn2c(CO)nc(C(C)C)c2Sc2cc(Cl)cc(Cl)c2)cc1; 8.18
4) CC(C)c1nc(CCOC(N)=O)n(Cc2ccncc2)c1Sc1cc(Cl)cc(Cl)c1; 3.22
5) CCCn1c(CO)nc(C(C)C)c1Sc1cccc(Cl)c1; 1.85
6) CC(C)c1nc(CO)n(CC(F)(F)F)c1Sc1cc(Cl)cc(Cl)c1; 9.77
7) CC(C)c1c(Sc2cccc(Cl)c2)nc(CO)n1C; 273
8) CCn1c(COCCOC(C)=O)nc(C(C)C)c1Sc1cc(Cl)cc(Cl)c1; 15.8

According to the records, this compound CC(C)c1nc(CO)n(Cc2ccccc2)c1Sc1cc(Cl)cc(Cl)c1 displays IC50 of 3.68

According to the records, this compound CC(C)c1nc(C=O)n(C)c1Sc1cc(Cl)cc(Cl)c1 displays IC50 of 131

According to the records, this compound CC(C)c1nc(CCOC(N)=O)n(Cc2ccc([N+](=O)[O-])cc2)c1Sc1cc(Cl)cc(Cl)c1 [Compound 128a] displays IC50 of 104

According to the records, this compound Cc1cc(C)cc(S(=O)(=O)c2c(C(C)C)nc(CO)n2C)c1 displays IC50 of 194

According to the records, this compound CC(C)c1nc(COC(N)=O)n(Cc2ccc(=O)[nH]c2)c1Sc1cc(Cl)cc(Cl)c1 displays IC50 of 2.78

According to the records, this compound CCCn1c(CO)nc(C(C)C)c1Sc1cccc([N+](=O)[O-])c1 displays IC50 of 2.98

According to the records, this compound CC(C)c1nc(CCOCc2ccccc2)n(Cc2ccncc2)c1Sc1cc(Cl)cc(Cl)c1 [Compound 122b] displays IC50 of 71.4

====

Known IC50 of a selection of molecules
# Study system: purified recombinant HIV-1 reverse transcriptase (Human immunodeficiency virus type 1 group M subtype B, UniProt P04585)
# Construct: purified recombinant HIV-1 reverse transcriptase; made in house; host or cells: Escherichia coli
# Procedure details: reverse transcriptase inhibition, poly(rA)/(dT) template primer, [3H]dTTP uptake
# Assay type: biochemical
# Study conditions: read-out: RT IC50; pH 8.3, 37° C., 1 hour; Tables 5 and 6
# Experimental: The reverse transcriptase activity of each of the compounds synthesized in Examples was assayed by the following procedures. Using the purified recombinant HIV-1 reverse transcriptase RT, E.C. 2.7.7.49) obtained by expression in Escherichia Coli, a 96-well plate assay system was established for assaying a large number of samples. The RT inhibitory activity was determined as follows. […]
Give just the number in µM; leave the unit off.

Some molecules with known IC50 results, for comparison:
1) CCn1c(COC(N)=O)nc(C(C)C)c1Sc1cccc(F)c1 [Compound I-57]; 0.119
2) CC(C)c1nc(CCOCc2ccccc2)n(C)c1Sc1cc(Cl)cc(Cl)c1 [Compound I-136]; 4.59

# input for lookup
According to the records, this molecule CC(C)c1nc(CCN)n(C)c1Sc1cc(Cl)cc(Cl)c1 [Compound I-82] displays IC50 of 1.28

====

# Procedure details: cytotoxicity in MT-4 cells (MTT, culture medium in place of HIV)
# Assay type: cell-based
# Study conditions: human, mt-4 cells
Structures can show the parent of a compound that is named as a salt.
Measured parameter: CC50 at 120 h

1) CC(C)c1nc(CO)n(Cc2ccsc2)c1Sc1cc(Cl)cc(Cl)c1 [Compound I-127, hydrochloride]; 12.5 to 25 µg/mL
2) CC(C)c1nc(CO)n(Cc2cccs2)c1Sc1cc(Cl)cc(Cl)c1.Cl [Compound I-126, hydrochloride]; 12.5 to 25 µg/mL
3) CC(C)c1nc(COC(N)=O)n(Cc2ccc[nH]c2=O)c1Sc1cc(Cl)cc(Cl)c1; 12.5 to 25 µg/mL

# input for lookup
According to the records, this molecule CC(C)c1nc(CCO)n(CCO)c1Sc1cc(Cl)cc(Cl)c1 [Compound 131c] displays CC50 at 120 h of 6.3 to 12.5 µg/mL

====

Known log10 CC50 at 120 h of a selection of compounds
# Procedure details: cytotoxicity in MT-4 cells (MTT, culture medium in place of HIV)
# Assay type: cell-based
# Study conditions: human, mt-4 cells
Field: value | Transform: log10 | Quantity: CC50 at 120 h | Unit: mg/L

Some compounds with known log10 CC50 at 120 h results, for comparison:
1) CC(C)c1nc(CO)n(CCCCCCc2ccccc2)c1Sc1cc(Cl)cc(Cl)c1; 1.10
2) CCn1c(CN)nc(C(C)C)c1Sc1cccc(Cl)c1; 0.80
3) CC(C)c1nc(CO)n(CF)c1Sc1cc(Cl)cc(Cl)c1; 1.13
4) CC(C)c1nc(CCOCc2ccccc2)n(C)c1Sc1cc(Cl)cc(Cl)c1; 1.10
5) CC(C)c1nc(CO)n(Cc2cccc3ccccc23)c1Sc1cc(Cl)cc(Cl)c1.Cl [Compound I-120, hydrochloride]; 2.00

According to the records, this compound CC(C)c1nc(CCO)n(Cc2ccccc2[N+](=O)[O-])c1Sc1cc(Cl)cc(Cl)c1 [Compound 126c] displays log10 CC50 at 120 h of 0.80

According to the records, this compound CC(C)c1nc(CCOCc2ccccc2)n(CCO)c1Sc1cc(Cl)cc(Cl)c1 [Compound 130d] displays log10 CC50 at 120 h of 0.80

According to the records, this compound CC(C)c1nc(CO)n(CCCCCc2ccccc2)c1Sc1cc(Cl)cc(Cl)c1 displays log10 CC50 at 120 h of 1.10

According to the records, this compound CCn1c(CN)nc(C(C)C)c1Sc1ccccc1 displays log10 CC50 at 120 h of 1.22

According to the records, this compound CC(C)c1nc(CO)n(Cc2ccc[nH]c2=O)c1Sc1cc(Cl)cc(Cl)c1 [Compound 116b] displays log10 CC50 at 120 h of 1.70

According to the records, this compound CCOC(=O)Cn1c(CCOCc2ccccc2)nc(C(C)C)c1Sc1cc(Cl)cc(Cl)c1 [Compound 130c] displays log10 CC50 at 120 h of 1.10

According to the records, this compound CC(C)c1nc(CCOCc2ccccc2)n(Cc2ccncc2)c1Sc1cc(Cl)cc(Cl)c1 [Compound 122b] displays log10 CC50 at 120 h of 0.80
